Molecular target: T1, CD70 on the cell surface of CD70-positive cell lines (UniProt P32970 1-193, limits assumed)
T1 construct: whole, on cells; One molecule for all cell lines; the cell line is named under assay; also called natural CD70 on the cell surface; CD70 antigen on Raji, U266, THP-1, RS4:11, REH, Molm-13 cells
T1 sequence (looked up): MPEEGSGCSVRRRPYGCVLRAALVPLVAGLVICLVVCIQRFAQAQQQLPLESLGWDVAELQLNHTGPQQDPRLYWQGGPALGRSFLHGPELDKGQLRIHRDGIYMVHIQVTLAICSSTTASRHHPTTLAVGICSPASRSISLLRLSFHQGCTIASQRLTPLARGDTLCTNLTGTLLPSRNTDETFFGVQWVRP
Experiment: phage FACS on CD70-positive cell lines (Raji, U266)

- binder: "phage monoclonal antibody clone #9 (VHH, single-domain antibody (heavy chain variable region alone); also called VHH 09; 09 antibody) VHH: EVQLLESGGGLVQPGGSLRLSCAASGFTFNIDAMGWVRQAPGKGLEWVSSISSSGGTTYYADSVKGRFTISRDNSKNTLYLQMNSLRAEDTAVYYCARSRYSVPDGRGSYDVWGQGTLVTVSS"
  binding result: "binds"
- binder: "phage monoclonal antibody clone #21 (VHH, single-domain antibody (heavy chain variable region alone); also called VHH21; VHH 21) VHH: EVQLLESGGGLVQPGGSLRLSCAASGFTFSNYAMGWVRQAPGKGLEWVSSITGLGGNMYYADSVKGRFTISRDNSKNTLYLQMNSLRAEDTAVYYCARMYYSQGVNNYSYPSTDIWGQGTLVTVSS"
  binding result: "binds"
- binder: "phage monoclonal antibody clone #20 (VHH, single-domain antibody (heavy chain variable region alone); also called VHH20; VHH 20) VHH: EVQLLESGGGLVQPGGSLRLSCAASGFTFSSYAMGWVRQAPGKGLEWVSSISGYGEETYYADSVKGRFTISRDNSKNTLYLQMNSLRAEDTAVYYCARFYYRYWKEFDYWGQGTLVTVSS"
  binding result: "binds"
- binder: "phage monoclonal antibody clone #6 (scFv, also called scFv 06; Scfv06) scFv: QAVLTQPPSASATPGQRVSISCSGSSSNIGRNTVNWYQHLPGTAPKLLIYSNDHRPSGVPDRFSGSQSGTSASLAISGLQSEDEADYYCASWDDSLTGWVFGGGTKVTVLGSRGGGGSGGGGSGGGGSLEMAQVQLVQSGAEVKKAGSSLKVSCKANGGSFTNYLINWVRQAPGQGLEWMGGIIPVYGTPIYSQKFQGRVTFTADEPTRTAYMELSSLTFEDTAVYYCVREDEGYGDLYLAYWGQGTLVTVSS"
  binding result: "binds"

Source: patent US20230399412A1
